# System: ECa-109 cell line
# Assay comment: Antiproliferative activity against human EC109 cells after 48 hrs by MTT assay
# Format: functional, cell-based
# Stated conditions: ECa-109, 48 h
Value kind: pIC50
// returns pIC50 (minus log10 of molar concentration), number only

Known results for compounds:
{"Query smiles": "CCCSc1nc(NCCNC(=S)Nc2ccc(Br)cc2)c2nnn(CCc3ccccc3)c2n1", "pIC50": 4.64}
{"Query smiles": "CCCSc1nc(NCCNC(=S)Nc2ccc([N+](=O)[O-])cc2)c2nnn(CCc3ccccc3)c2n1", "pIC50": 4.24}
{"Query smiles": "CCCSc1nc(NCCNC(=S)Nc2ccc(C)cc2)c2nnn(CCc3ccccc3)c2n1", "pIC50": 4.55}
{"Query smiles": "CCCSc1nc(NCCNC(=S)NCc2ccccc2)c2nnn(CCc3ccccc3)c2n1", "pIC50": 4.86}
{"Query smiles": "CCCSc1nc(NCCNC(=S)Nc2cccnc2)c2nnn(CCO)c2n1", "pIC50": 4.74}
{"Query smiles": "CCCSc1nc(NCCNC(=S)Nc2ccc(Cl)cc2)c2nnn(CCc3ccccc3)c2n1", "pIC50": 4.98}

Task: Hello, please tell me recorded pIC50 for this one: CCCSc1nc(NCCNC(=S)Nc2cccnc2)c2nnn(C3CCCC3)c2n1
Output: 4.90

Task: Hello, please tell me recorded pIC50 for this one: CCCSc1nc(NCCNC(=S)Nc2cccc(Cl)c2)c2nnn(CCc3ccccc3)c2n1
Output: 4.93

Task: Hello, please tell me recorded pIC50 for this one: CCCSc1nc(NCCNC(=S)Nc2ccccc2)c2nnn(CCc3ccccc3)c2n1
Output: 4.43

Task: Hello, please tell me recorded pIC50 for this one: CCCCc1ccc(NC(=S)NCCNc2nc(SCCC)nc3c2nnn3CCc2ccccc2)cc1
Output: 4.72

Task: Hello, please tell me recorded pIC50 for this one: CCCSc1nc(NCCNC(=S)Nc2cccnc2)c2nnn(CCc3c[nH]c4ccccc34)c2n1
Output: 5.09

Task: Hello, please tell me recorded pIC50 for this one: CCCSc1nc(NCCNC(=S)Nc2cccc(C(F)(F)F)c2)c2nnn(CCc3ccccc3)c2n1
Output: 4.75

Task: Hello, please tell me recorded pIC50 for this one: CCCSc1nc(NCCNC(=S)Nc2ccccn2)c2nnn(CCc3ccccc3)c2n1
Output: 5.27

Task: Hello, please tell me recorded pIC50 for this one: CCCSc1nc(NCCNC(=S)Nc2cccnc2)c2nnn(Cc3ccccc3)c2n1
Output: 4.96

Task: Hello, please tell me recorded pIC50 for this one: CCCSc1nc(NCCNC(=S)Nc2cccnc2)c2nnn(CCc3ccccc3)c2n1
Output: 5.30

* * *

# Tested on: A549
# Assay comment: Antiproliferative activity against human A549 cells after 48 hrs by MTT assay
# Assay type: functional, cell-based
# Stated conditions: A549, 48 h
// pIC50 lookup, one value per entry
// returns pIC50 (minus log10 of molar concentration), number only

Known results for compounds:
{"Query smiles": "CCCSc1nc(NCCNC(=S)Nc2ccc(Br)cc2)c2nnn(CCc3ccccc3)c2n1", "pIC50": 4.49}
{"Query smiles": "CCCSc1nc(NCCNC(=S)Nc2ccc(C)cc2)c2nnn(CCc3ccccc3)c2n1", "pIC50": 4.37}
{"Query smiles": "CCCSc1nc(NCCNC(=S)Nc2cccnc2)c2nnn(Cc3ccccc3)c2n1", "pIC50": 4.92}
{"Query smiles": "CCCSc1nc(NCCNC(=S)Nc2ccc(Cl)cc2)c2nnn(CCc3ccccc3)c2n1", "pIC50": 4.64}
{"Query smiles": "CCCSc1nc(NCCNC(=S)Nc2cccnc2)c2nnn(CC(C)C)c2n1", "pIC50": 4.98}

Task: Write pIC50 of CCCSc1nc(NCCNC(=S)Nc2cccnc2)c2nnn(CCc3ccccc3)c2n1 ; system used: A549
Output: 5.08

Task: Write pIC50 of CCCSc1nc(NCCNC(=S)Nc2cccc3ccccc23)c2nnn(CCc3ccccc3)c2n1 ; system used: A549
Output: 4.39

Task: Write pIC50 of CCCSc1nc(NCCNC(=S)Nc2cccnc2)c2nnn(C3CCCC3)c2n1 ; system used: A549
Output: 4.82

* * *

# Test system: A549
# Assay comment: Antiproliferative activity against human A549 cells after 48 hrs by MTT assay
# Assay type: functional, cell-based
# Stated conditions: A549, 48 h
// IC50 lookup, one value per entry
Could you give me the number in µM? Just the number is fine.

{"Query smiles": "CCCSc1nc(NCCNC(=S)Nc2ccccn2)c2nnn(CCc3ccccc3)c2n1", "Value": 5.91}
{"Query smiles": "CCCSc1nc(NCCNC(=S)Nc2cccc(Cl)c2)c2nnn(CCc3ccccc3)c2n1", "Value": 15.8}
{"Query smiles": "CCCSc1nc(NCCNC(=S)Nc2ccc([N+](=O)[O-])cc2)c2nnn(CCc3ccccc3)c2n1", "Value": 39.1}
{"Query smiles": "CCCSc1nc(NCCNC(=S)Nc2cccnc2)c2nnn(CCc3c[nH]c4ccccc34)c2n1", "Value": 3.28}

Task: Write IC50 of CCCSc1nc(NCCNC(=S)Nc2cccc(C(F)(F)F)c2)c2nnn(CCc3ccccc3)c2n1 ; system used: A549
Output: 17.2

* * *

// IC50 lookup, one value per entry
# Tested on: ECa-109 cell line
# Assay comment: Antiproliferative activity against human EC109 cells after 48 hrs by MTT assay
# Format: functional, cell-based
# Stated conditions: ECa-109, 48 h

Known results for molecules:
{"Query smiles": "CCCSc1nc(NCCNC(=S)Nc2ccccc2Cl)c2nnn(CCc3ccccc3)c2n1", "IC50": "> 64 µM"}
{"Query smiles": "CCCSc1nc(NCCNC(=S)Nc2cccc3ccccc23)c2nnn(CCc3ccccc3)c2n1", "IC50": "> 64 µM"}

As a next step, examine the molecule that follows.
Task: Hello, please tell me recorded IC50 for this one: CCCSc1nc(NCCNC(=S)Nc2cccnc2)c2nnn(CC(C)C)c2n1
Output: > 64 µM

* * *

# Test system: A549
# Assay comment: Antiproliferative activity against human A549 cells after 48 hrs by MTT assay
# Type: functional, cell-based
# Stated conditions: A549, 48 h
pIC50: −log10 of the molar value.
// pIC50 lookup, one value per entry

{"Query smiles": "CCCSc1nc(NCCNC(=S)Nc2ccccc2)c2nnn(CCc3ccccc3)c2n1", "Value": "< 4.19"}
{"Query smiles": "CCCSc1nc(NCCNC(=S)Nc2cccnc2)c2nnn(CCO)c2n1", "Value": "< 4.19"}

As a next step, examine the compound that follows.
Task: Write pIC50 of CCCCc1ccc(NC(=S)NCCNc2nc(SCCC)nc3c2nnn3CCc2ccccc2)cc1 ; system used: A549
Output: < 4.19
